Experiment: Plasma DCA levels by HPLC, bolus and infusion protocol (Example C)
Format: in vivo, pediatric patients
Conditions: human, 100 mg/kg, Group B, 100mg/kg bolus and 12.5 mg/kg/hr infusion, n=11, read-out: Average DCA Plasma Levels, mM at 1 hr
property-name: concentration at 1 h (mM)
Report the value in mM with no unit label.

concentration at 1 h for O=C(O)C(Cl)Cl [DCA, dichloroacetate] ?
1.13

----------
Assay: Plasma DCA levels by HPLC, bolus and infusion protocol (Example C)
Format: in vivo, pediatric patients
Conditions: human, Group B, 100mg/kg bolus and 12.5 mg/kg/hr infusion, patients with greatest degree of clinical benefits, n=7, read-out: Average Optimum Mean of DCA Plasma Levels, mM at 1 hr
property-name: concentration at 1 h
# output: numeric value plus its unit

concentration at 1 h for O=C(O)C(Cl)Cl [DCA, dichloroacetate] ?
1.01 mM
